Reference for the values: patent US20140086936A1

Measured Ki values are reported for all entries that follow.
Target: T1, Recombinant purified human matriptase (amino acids 596-855) (human), Q9Y5Y6
T1 chain: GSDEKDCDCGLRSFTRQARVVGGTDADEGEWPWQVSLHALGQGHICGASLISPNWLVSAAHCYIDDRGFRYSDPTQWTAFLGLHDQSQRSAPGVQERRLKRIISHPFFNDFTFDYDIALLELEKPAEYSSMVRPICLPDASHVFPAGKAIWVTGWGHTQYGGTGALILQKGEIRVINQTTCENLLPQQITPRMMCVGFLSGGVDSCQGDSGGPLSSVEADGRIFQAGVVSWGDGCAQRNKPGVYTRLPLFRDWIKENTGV
Experiment: enzyme inhibition, fluorogenic substrate Boc-Gln-Ala-Arg-AMC, Morrison tight-binding fit
Your answer should be a plain number; it is taken to be in nM.

                                     binder  unit_of_measurement  recorded_value
0  RQAR (modifications not checked) [R-Q-A-(D)R ketobenzothiazole (compound 7)]                   nM             4.6

Now for the binder whose Ki we want.
For RQAK (modifications not checked) [RQAK-ketobenzothiazole] , what is its reported Ki?
9.5
